From: patent US20240360228A1

Entries annotated with measured % Blocking
EXPERIMENTAL SYSTEM: T1, human CCR8 (human, UniProt P51685 1-355)
T1 construct: Native CCR8 on human PBMC (CCR8+ CD3+ or CCR8+ CD4+ lymphocytes); also called chemokine (C-C motif) receptor 8
T1 sequence (P51685 whole entry): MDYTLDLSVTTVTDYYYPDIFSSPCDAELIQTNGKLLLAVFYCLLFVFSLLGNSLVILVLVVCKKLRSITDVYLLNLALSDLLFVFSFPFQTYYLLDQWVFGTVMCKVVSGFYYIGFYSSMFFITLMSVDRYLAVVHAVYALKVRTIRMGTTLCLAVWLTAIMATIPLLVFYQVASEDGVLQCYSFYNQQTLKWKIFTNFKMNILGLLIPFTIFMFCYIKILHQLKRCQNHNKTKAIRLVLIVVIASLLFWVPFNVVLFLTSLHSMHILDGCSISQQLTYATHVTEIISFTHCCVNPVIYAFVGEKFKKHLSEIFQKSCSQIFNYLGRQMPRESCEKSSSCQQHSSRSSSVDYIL
ASSAY DETAILS: flow blocking, PBMC CCR8+CD4+; competitor PE-AB13
Experimental: For blocking studies, 100 μL of the cell suspension were incubated with 10 μg purified isotype control, AB1, AB2, AB3, AB4, AB5, AB8, AB9, AB10, AB11, AB12, AB13, AB14, AB15, and Commercial ABI antibodies, or isotype control, as blocking agents. […]
PROPERTY: % Blocking (%)

binder="AB13 (antibody, V domains shown, Hybridoma monoclonal; also called antibody 13; clone 13) VH: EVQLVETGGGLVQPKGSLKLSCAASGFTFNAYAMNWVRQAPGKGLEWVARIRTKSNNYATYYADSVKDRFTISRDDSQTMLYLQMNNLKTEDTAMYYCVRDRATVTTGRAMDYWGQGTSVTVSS VL: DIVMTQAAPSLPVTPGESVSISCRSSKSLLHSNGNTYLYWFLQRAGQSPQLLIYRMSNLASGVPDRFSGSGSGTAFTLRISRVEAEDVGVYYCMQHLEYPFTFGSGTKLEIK" property="% Blocking" measurement=95.5
binder="AB12 (antibody, V domains shown, Hybridoma monoclonal; also called antibody 12; clone 12) VH: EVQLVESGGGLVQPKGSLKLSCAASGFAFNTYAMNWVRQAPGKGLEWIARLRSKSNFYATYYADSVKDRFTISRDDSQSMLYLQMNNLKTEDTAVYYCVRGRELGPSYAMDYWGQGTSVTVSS VL: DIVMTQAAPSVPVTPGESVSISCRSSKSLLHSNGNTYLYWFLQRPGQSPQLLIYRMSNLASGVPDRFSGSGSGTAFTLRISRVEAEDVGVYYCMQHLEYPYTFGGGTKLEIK" property="% Blocking" measurement=98.5
binder="AB15 (antibody, V domains shown, Hybridoma monoclonal; Same VH/VL entries as AB14; also called antibody 15; clone 15) VH: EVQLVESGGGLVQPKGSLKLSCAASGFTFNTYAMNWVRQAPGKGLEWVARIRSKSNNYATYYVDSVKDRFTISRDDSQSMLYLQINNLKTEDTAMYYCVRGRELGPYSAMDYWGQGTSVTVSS VL: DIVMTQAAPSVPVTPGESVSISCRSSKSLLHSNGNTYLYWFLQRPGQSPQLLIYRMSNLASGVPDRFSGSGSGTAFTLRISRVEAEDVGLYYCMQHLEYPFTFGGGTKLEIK" property="% Blocking" measurement=91.9
binder="AB4 (antibody, V domains shown, Hybridoma monoclonal; also called antibody 4; clone 4) VH: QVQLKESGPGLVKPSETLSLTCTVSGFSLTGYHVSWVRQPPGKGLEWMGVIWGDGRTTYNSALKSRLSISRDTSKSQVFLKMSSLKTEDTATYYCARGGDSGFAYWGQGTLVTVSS VL: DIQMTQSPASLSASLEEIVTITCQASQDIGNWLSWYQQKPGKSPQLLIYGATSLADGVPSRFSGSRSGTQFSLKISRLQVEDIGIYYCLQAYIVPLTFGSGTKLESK" property="% Blocking" measurement=21.7
